Taken from patent US4476120A.

Some compounds, each annotated with its measured Hematic levels in the rat.
test summary: Hematic levels in the rat (absorption by oral route)
condition notes: 4 hours, 100 mg/kg as erythromycin, average, 100 mg/kg, 240 min
endpoint: Hematic levels in the rat (µg/mL)

{"compound": "CC[C@H]1OC(=O)[C@H](C)[C@@H](O[C@H]2C[C@@](C)(OC)[C@@H](O)[C@H](C)O2)[C@H](C)[C@@H](O[C@@H]2O[C@H](C)C[C@H](N(C)C)[C@H]2O)[C@](C)(O)C[C@@H](C)C(=O)[C@H](C)[C@@H](O)[C@]1(C)O [RV03, erythromycyn-thiazolidin-carboxylate]", "endpoint": "Hematic levels in the rat", "meas value": 0.59}
{"compound": "CC[C@H]1OC(=O)[C@H](C)[C@@H](O[C@H]2C[C@@](C)(OC)[C@@H](O)[C@H](C)O2)[C@H](C)[C@@H](O[C@@H]2O[C@H](C)C[C@H](N(C)C)[C@H]2O)[C@](C)(O)C[C@@H](C)C(=O)[C@H](C)[C@@H](O)[C@]1(C)O [RV01, erythromycin alpha-mercaptosuccinate]", "endpoint": "Hematic levels in the rat", "meas value": 0.44}
{"compound": "CC[C@H]1OC(=O)[C@H](C)[C@@H](O[C@H]2C[C@@](C)(OC)[C@@H](O)[C@H](C)O2)[C@H](C)[C@@H](O[C@@H]2O[C@H](C)C[C@H](N(C)C)[C@H]2O)[C@](C)(O)C[C@@H](C)C(=O)[C@H](C)[C@@H](O)[C@]1(C)O [RV05, erythromycin-N-acetylcysteinate]", "endpoint": "Hematic levels in the rat", "meas value": 0.59}
{"compound": "CC[C@H]1OC(=O)[C@H](C)[C@@H](O[C@H]2C[C@@](C)(OC)[C@@H](O)[C@H](C)O2)[C@H](C)[C@@H](O[C@@H]2O[C@H](C)C[C@H](N(C)C)[C@H]2O)[C@](C)(O)C[C@@H](C)C(=O)[C@H](C)[C@@H](O)[C@]1(C)O [RV04, erythromycin-S-carboxymethylcysteinate]", "endpoint": "Hematic levels in the rat", "meas value": 0.68}

* * *

System: E. coli SS 06
Type: cell-based
condition notes: Brain Heart Infusion, estolate and RV11-RV15 previously hydrolized, unit assumed

{"molecule": "CCC(=O)O[C@H]1[C@H](O[C@@H]2[C@@H](C)[C@H](O[C@H]3C[C@@](C)(OC)[C@@H](O)[C@H](C)O3)[C@@H](C)C(=O)O[C@H](CC)[C@@](C)(O)[C@H](O)[C@@H](C)C(=O)[C@H](C)C[C@@]2(C)O)O[C@H](C)C[C@@H]1N(C)C [RV11]", "MIC / µg/mL": 50}
{"molecule": "CC[C@H]1OC(=O)[C@H](C)[C@@H](O[C@H]2C[C@@](C)(OC)[C@@H](O)[C@H](C)O2)[C@H](C)[C@@H](O[C@@H]2O[C@H](C)C[C@H](N(C)C)[C@H]2O)[C@](C)(O)C[C@@H](C)C(=O)[C@H](C)[C@@H](O)[C@]1(C)O [RV01, erythromycin alpha-mercaptosuccinate]", "MIC / µg/mL": 100}
{"molecule": "CC[C@H]1OC(=O)[C@H](C)[C@@H](O[C@H]2C[C@@](C)(OC)[C@@H](O)[C@H](C)O2)[C@H](C)[C@@H](O[C@@H]2O[C@H](C)C[C@H](N(C)C)[C@H]2O)[C@](C)(O)C[C@@H](C)C(=O)[C@H](C)[C@@H](O)[C@]1(C)O [RV05, erythromycin-N-acetylcysteinate]", "MIC / µg/mL": 100}
{"molecule": "CCC(=O)O[C@H]1[C@H](O[C@@H]2[C@@H](C)[C@H](O[C@H]3C[C@@](C)(OC)[C@@H](O)[C@H](C)O3)[C@@H](C)C(=O)O[C@H](CC)[C@@](C)(O)[C@H](O)[C@@H](C)C(=O)[C@H](C)C[C@@]2(C)O)O[C@H](C)C[C@@H]1N(C)C [RV13]", "MIC / µg/mL": 50}

* * *

test summary: in vivo
condition notes: rat, po, 100 mg/kg, Hematic levels in the rat

{"molecule": "CCC(=O)O[C@H]1[C@H](O[C@@H]2[C@@H](C)[C@H](O[C@H]3C[C@@](C)(OC)[C@@H](O)[C@H](C)O3)[C@@H](C)C(=O)O[C@H](CC)[C@@](C)(O)[C@H](O)[C@@H](C)C(=O)[C@H](C)C[C@@]2(C)O)O[C@H](C)C[C@@H]1N(C)C [erythromycin estolate, reference compound]", "output unit": "ng/mL", "concentration at 3 h": 1490}

* * *

Tested on: B. cereus ATCC 11778
Type: cell-based
condition notes: Brain Heart Infusion, estolate and RV11-RV15 previously hydrolized, unit assumed
endpoint: MIC (µg/mL)

{"compound": "CC[C@H]1OC(=O)[C@H](C)[C@@H](O[C@H]2C[C@@](C)(OC)[C@@H](O)[C@H](C)O2)[C@H](C)[C@@H](O[C@@H]2O[C@H](C)C[C@H](N(C)C)[C@H]2O)[C@](C)(O)C[C@@H](C)C(=O)[C@H](C)[C@@H](O)[C@]1(C)O [RV04, erythromycin-S-carboxymethylcysteinate]", "target or system": "B. cereus ATCC 11778", "meas value": 0.2}
{"compound": "CCC(=O)O[C@H]1[C@H](O[C@@H]2[C@@H](C)[C@H](O[C@H]3C[C@@](C)(OC)[C@@H](O)[C@H](C)O3)[C@@H](C)C(=O)O[C@H](CC)[C@@](C)(O)[C@H](O)[C@@H](C)C(=O)[C@H](C)C[C@@]2(C)O)O[C@H](C)C[C@@H]1N(C)C [RV14]", "target or system": "B. cereus ATCC 11778", "meas value": 0.4}
{"compound": "CC[C@H]1OC(=O)[C@H](C)[C@@H](O[C@H]2C[C@@](C)(OC)[C@@H](O)[C@H](C)O2)[C@H](C)[C@@H](O[C@@H]2O[C@H](C)C[C@H](N(C)C)[C@H]2O)[C@](C)(O)C[C@@H](C)C(=O)[C@H](C)[C@@H](O)[C@]1(C)O [RV03, erythromycyn-thiazolidin-carboxylate]", "target or system": "B. cereus ATCC 11778", "meas value": 0.08}

* * *

Some compounds, each annotated with its measured MIC.
Test system: B. cereus ATCC 11778
Type: cell-based
condition notes: Brain Heart Infusion, estolate and RV11-RV15 previously hydrolized, unit assumed
endpoint: MIC (µg/mL)

{"compound": "CC[C@H]1OC(=O)[C@H](C)[C@@H](O[C@H]2C[C@@](C)(OC)[C@@H](O)[C@H](C)O2)[C@H](C)[C@@H](O[C@@H]2O[C@H](C)C[C@H](N(C)C)[C@H]2O)[C@](C)(O)C[C@@H](C)C(=O)[C@H](C)[C@@H](O)[C@]1(C)O [RV01, erythromycin alpha-mercaptosuccinate]", "target or system": "B. cereus ATCC 11778", "output unit": "µg/mL", "meas value": 0.4}
{"compound": "CCC(=O)O[C@H]1[C@H](O[C@@H]2[C@@H](C)[C@H](O[C@H]3C[C@@](C)(OC)[C@@H](O)[C@H](C)O3)[C@@H](C)C(=O)O[C@H](CC)[C@@](C)(O)[C@H](O)[C@@H](C)C(=O)[C@H](C)C[C@@]2(C)O)O[C@H](C)C[C@@H]1N(C)C [erythromycin estolate, reference compound]", "target or system": "B. cereus ATCC 11778", "output unit": "µg/mL", "meas value": 0.8}
{"compound": "CCC(=O)O[C@H]1[C@H](O[C@@H]2[C@@H](C)[C@H](O[C@H]3C[C@@](C)(OC)[C@@H](O)[C@H](C)O3)[C@@H](C)C(=O)O[C@H](CC)[C@@](C)(O)[C@H](O)[C@@H](C)C(=O)[C@H](C)C[C@@]2(C)O)O[C@H](C)C[C@@H]1N(C)C [RV15]", "target or system": "B. cereus ATCC 11778", "output unit": "µg/mL", "meas value": 0.4}

* * *

Tested on: D. pneumoniae SS 23
Assay type: cell-based
condition notes: Brain Heart Infusion, estolate and RV11-RV15 previously hydrolized, unit assumed
Some compounds, each annotated with its measured MIC.

{"compound": "CCC(=O)O[C@H]1[C@H](O[C@@H]2[C@@H](C)[C@H](O[C@H]3C[C@@](C)(OC)[C@@H](O)[C@H](C)O3)[C@@H](C)C(=O)O[C@H](CC)[C@@](C)(O)[C@H](O)[C@@H](C)C(=O)[C@H](C)C[C@@]2(C)O)O[C@H](C)C[C@@H]1N(C)C [RV11]", "MIC [µg/mL]": 0.025}
{"compound": "CCC(=O)O[C@H]1[C@H](O[C@@H]2[C@@H](C)[C@H](O[C@H]3C[C@@](C)(OC)[C@@H](O)[C@H](C)O3)[C@@H](C)C(=O)O[C@H](CC)[C@@](C)(O)[C@H](O)[C@@H](C)C(=O)[C@H](C)C[C@@]2(C)O)O[C@H](C)C[C@@H]1N(C)C [RV15]", "MIC [µg/mL]": 0.05}
{"compound": "CC[C@H]1OC(=O)[C@H](C)[C@@H](O[C@H]2C[C@@](C)(OC)[C@@H](O)[C@H](C)O2)[C@H](C)[C@@H](O[C@@H]2O[C@H](C)C[C@H](N(C)C)[C@H]2O)[C@](C)(O)C[C@@H](C)C(=O)[C@H](C)[C@@H](O)[C@]1(C)O [RV03, erythromycyn-thiazolidin-carboxylate]", "MIC [µg/mL]": 0.025}
